Data provenance is PubChem BioAssay.

assay: viability loss in pontine glioma line – cell-based, SU-DIPG-XVII, MIPE5.0, CellTiter-Glo, qHTS, dose response (AID 1347060); details: CellTiter-Glo ATP luminescence;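 on AC50: cells exposed to compound for 48 hours before viability readout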
Records with an inconclusive call do not appear. Activity calls are given as the source filed them. Cut-off not given; nearly all actives show AC50 up to about 26 µM.
Possible outcomes: active, inactive

COMPOUND	ASSIGNED CLASS
COc1cc(OC)c2c(=O)[nH]c(-c3cc(C)c(OCCO)c(C)c3)nc2c1	inactive
N=C1CCCN1Cc1[nH]c(=O)[nH]c(=O)c1Cl	inactive
COc1ccc(C2=N[C@H](c3ccc(Cl)cc3)[C@H](c3ccc(Cl)cc3)N2C(=O)N2CCNC(=O)C2)c(OC(C)C)c1	active
CC[C@@H](C)Nc1cc(C(=O)NC2CC3CCC(C2)N3c2ccc(C(=O)C3CC3)cn2)c(C)cc1C(N)=O (some centres undefined)	active
Cc1ccc(-c2ccc3ncc4c(c3n2)n(C2CCN(C(=O)[C@H](C)O)CC2)c(=O)n4C)cn1	active
C[C@H]1CNC(=O)c2cnn3ccc(nc23)N[C@H](C)c2cc(F)ccc2O1	active
Clc1ccc2ncc(-c3cccc(NC4CNC4)n3)n2c1	inactive
COc1cccc(Nc2c(C(N)=O)cnc3c(C)cc(S(=O)(=O)c4cccc(C(=O)N(C)C)c4)cc23)c1	inactive
Cc1ccc(C(N)=O)cc1Nc1nccc(-c2cn(C(C)C)c3cnccc23)n1	active
